# credit: patent US5516796A

tested on: eye; assay: Ocular irritation (discomfort) after topical application, scale 0-3; format: in vivo, cats; details: cats, topical, 3 μg, mean ± SEM, n = 6
Consider the following molecules and their measured Maximum ocular irritation, Difference (experimental vs contralateral control eye) readings.
Reply briefly: the number, and no unit.

CCCCC[C@H](O)/C=C/[C@H]1C(SCCC(=O)OCC)CC(=O)[C@@H]1C/C=C\CCCC(=O)OC (stereo partly shown) :: 0.58
CCCCC[C@H](O)/C=C/[C@H]1C(SCC(N)C(=O)OCC)CC(=O)[C@@H]1C/C=C\CCCC(=O)OCc1ccccc1 (stereo partly shown) :: 0.75
CCCCC[C@H](O)/C=C/[C@H]1C(SCc2ccccc2)CC(=O)[C@@H]1C/C=C\CCCC(=O)OCc1ccccc1 (stereo partly shown) :: 0.08

Requested read-out Maximum ocular irritation, Difference (experimental vs contralateral control eye), target or system eye, entry CCCCC[C@H](O)/C=C/[C@H]1C(SCCO)CC(=O)[C@@H]1C/C=C\CCCC(=O)OC (stereo partly shown)
0.67

----------
test system: eye; test: Maximum reduction of intraocular pressure in cats after topical application; assay type: in vivo; settings: 3 ug, 1-3 hours after application, mean ± SEM, n = 6
# Maximum reduction of intraocular pressure, Difference (Exp Eye vs Cont Eye) listing for each entry below
Unit mmHg implied. Number only.

// worked examples, Maximum reduction of intraocular pressure, Difference (Exp Eye vs Cont Eye) included
CCCCC[C@H](O)/C=C/[C@H]1C(SCc2ccccc2)CC(=O)[C@@H]1C/C=C\CCCC(=O)OCc1ccccc1 (stereo partly shown) :: -3.7
CCCCC[C@H](O)/C=C/[C@H]1C(SCCC(=O)OCC)CC(=O)[C@@H]1C/C=C\CCCC(=O)OC (stereo partly shown) :: -9.2
CCCCC[C@H](O)/C=C/[C@H]1C(SCCO)CC(=O)[C@@H]1C/C=C\CCCC(=O)OC (stereo partly shown) :: -6.0

Now, please, on to the next compound.
Please provide the recorded Maximum reduction of intraocular pressure, Difference (Exp Eye vs Cont Eye) for CCCCC[C@H](O)/C=C/[C@H]1C(SCC(N)C(=O)OCC)CC(=O)[C@@H]1C/C=C\CCCC(=O)OCc1ccccc1 (stereo partly shown) , tested on eye.
-4.3
